# System: MDCK cells
# experiment_summary: MTT cell proliferation/cytotoxicity assay
# Type: cell-based, canine
# conditions: Canis lupus familiaris, 24 h, read-out: Half-Maximal Inhibitory Concentration (IC50)
The following compounds are listed with their measured IC50 values.

# compound, IC50
records = [
    ("Cc1ncccc1Oc1ccccc1C=O [MPOBA]", "> 300 µM"),
    ("[O-][n+]1cccc2c1C=Cc1cccnc1O2 [OPDOb, oxepino(2,3-b:6,7-b’)dipyridine 1-oxide]", "> 300 µM"),
    ("[O-][n+]1cccc2c1C=Cc1ccncc1O2 [OPDOc, oxepino(3,2-b:7,6-c’)dipyridine 1-oxide]", "> 300 µM"),
]
